Recorded TGI by entry
System: TK-10 renal
assay_explanation: NCI tumour cell line growth inhibition, 48 h

Reference set (4 entries):
compound	target	TGI
CCN(CC)CCCC(C)Nc1ccnc2cc(Cl)ccc12 (stereo not given)	TK-10 renal	> 100 µM
COc1cccc(/C=N/NC(=O)CSCC(=O)N/N=C/c2cccc(OC)c2OC)c1OC	TK-10 renal	> 100 µM
C[C@H]1/C(=C/C(=O)OCCN(C)C)CC[C@H]2[C@H]1C(=O)C[C@H]1C(C)(C)[C@@H](O)CC[C@]21C	TK-10 renal	> 100 µM
S=C(NCCc1ccccn1)N/N=C/c1ccccn1	TK-10 renal	> 100 µM

Please find the next compound below.
The recorded TGI for `CCOC(=O)/C=C(\C(=O)OCC)n1ccc(=O)n(Cc2cnnn2CCCCOC(C)=O)c1=O` is 8.96 µM

Cited source for all entries: PubChem BioAssay (NCI)
